Sourced from ChEMBL document CHEMBL2029241

Below, each entry is listed with its recorded IC50.
protocol_description: Cytotoxicity against human TW03 cells after 48 hrs by MTT assay
Type: functional, cell-based
experimental_parameters: Homo sapiens, TW03, 48 h; read-out: IC50
Numeric only. Scale: µg/mL

molecule: O=C1/C(=C/c2ccc(Cl)c(Cl)c2)CC[C@@H]2[C@H]3CCCN4CCC[C@@H](CN12)[C@@H]34
reading_unit: µg/mL
IC50: 6.3

Could you please provide reported IC50 for COc1ccc(/C=C2\CC[C@@H]3[C@H]4CCCN5CCC[C@@H](CN3C2=O)[C@@H]45)cc1 ? Thanks! 1.2

Could you please provide reported IC50 for O=C(c1ccccc1)C1CC[C@@H]2[C@H]3CCCN4CCC[C@@H](CN2C1=O)[C@@H]34 (stereo partly drawn) ? Thanks! 2.4
